B1: Pistol ribozyme (parent)
chain: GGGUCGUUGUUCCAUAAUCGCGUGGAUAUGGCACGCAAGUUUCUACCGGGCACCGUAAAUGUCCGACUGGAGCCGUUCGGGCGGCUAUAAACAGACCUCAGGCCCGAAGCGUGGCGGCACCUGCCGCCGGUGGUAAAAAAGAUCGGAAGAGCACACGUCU

variants of: B1; assay: aptazyme ON/OFF ratio, guanine; higher = stronger switching; co-transcriptional cleavage with and without guanine
aptazyme ON/OFF ratio overview
reported_metric: aptazyme ON/OFF ratio

- G9A U11C C12U: 1.35
- U7G U8A C12U C13U: 1.42
- U7G U8C U10G U11C C12A C13A: 1.38
- U7C U8C G9U U10G U11C C12A C13G: 1.07
- U7A U10G U11A C12U C13G: 1.13
- U7A U8G G9C U10A U11C C12U C13U: 1.23
- U7C U10A U11C C12U C13U: 1.05
- U7G U8G G9C U10G U11C C12A C13A: 1.1
- U7G U8G G9U U10A U11C C12A: 1.32
- G9C U10G C12U C13A: 1.15
- G9U U10A U11C C12G C13A: 1.3
- U7G U8C G9U U10C U11C C13U: 1.52
- U7G U8C G9A U11C C12G C13A: 1.05
- U7C G9U U10G U11C C12G C13U: 1.12
- U7A U8A U10A U11A C13A: 1.16
- U7G U8A G9C U10A U11A C13A: 1.05
- U8G U10C U11G C12G C13U: 1.2
- U7A U8A U10G U11C C12U C13A: 1.42
- U7G U8C G9C U10A U11C C12U C13U: 1.09
- U7C G9A U10G C13U: 1.34
- U7C U8C U10C U11A C12U: 1.32
- U7C U8C U10A U11G C12A: 1.13
- U7C U8A G9U U10G U11A C12A C13U: 1.21
- U7G U8A G9A U10C U11A C12G C13G: 1.07
- U7G U8G U11C C12U: 1.37
- U7A U8A U10A U11A: 1.18
- U7C U8G G9C U10G U11C C12G C13A: 1.31

Every entry's value here was drawn from the RNAGym collection of RNA variant scans (doi:10.1021/acssynbio.7b00057).
